- Experimental System: α-synuclein seeded by E. coli CsgA (Homo sapiens, UniProt P37840)
- Construct: made in house; host or cells: E. coli NEB 3016 slyD::kan (CsgA, pET11d); E. coli (α-synuclein)
- Experiment: In vitro Thioflavin T assay of CsgA-seeded α-synuclein aggregation
- Format: biochemical
- Condition: compounds at 50 μM; 2 μM CsgA, 50 μM α-synuclein; ThT fluorescence at 40 hours; read-out: Inhibition of Aggregation CsgA-seeded αSyn
Cut-off 40% on inhibition at 50 µM, inclusive. At or above means Condition met; below means Condition not met.

Below, 2 molecules whose answers are already recorded.
O=c1c(O)c(-c2ccc(O)cc2O)oc2cc(O)cc(O)c12 = Condition met
Cc1ccc(C(C)C)c(O)c1 = Condition not met

Query: Given the entry C=CCc1ccc(OC)c(OC)c1 , answer whether its inhibition at 50 µM meets or surpasses 40%.
Response: Condition not met

Query: Could you verify whether the entry O=C(O)c1cc(O)c(O)c(O)c1 [gallic acid, 3,4,5-trihydroxybenzoic acid] shows inhibition at 50 µM of no less than 40%?
Response: Condition met

---

- Experimental System: human α-synuclein (Homo sapiens, UniProt P37840)
- Construct: made in house; host or cells: E. coli
- Experiment: In vitro Thioflavin T assay of α-synuclein aggregation
- Type: biochemical
- Condition: compounds at 1 μM; 50 μM α-synuclein; ThT fluorescence at 40 hours; read-out: Inhibition of Aggregation αSyn (compound activity range)
Test Readout: inhibition at 1 µM

Answered examples (4):
O=c1c(-c2ccc(O)cc2)coc2cc(O)cc(O)c12 = 30 to 60%
Oc1ccc(/C=C/c2cc(O)cc(O)c2)cc1 [resveratrol, (E)-5-(4-hydroxystyryl)benzene-1,3-diol] = > 60%
O=C(/C=C/c1ccc(O)c(O)c1)O[C@H](Cc1ccc(O)c(O)c1)C(=O)O = > 60%
O=c1c(O)c(-c2ccc(O)c(O)c2)oc2cc(O)cc(O)c12 = > 60%

Query: Give reported inhibition at 1 µM value for O=c1cc(-c2ccc(O)cc2)oc2cc(O)cc(O)c12
Response: 30 to 60%

---

- Experimental System: human α-synuclein (Homo sapiens)
- Construct: made in house; host or cells: E. coli
- Experiment: In vitro Thioflavin T assay of α-synuclein aggregation
- Type: biochemical
- Condition: read-out: Inhibition of Aggregation αSyn
Test Readout: inhibition at 50 µM (%)
# value in %; strip the unit string

Example results:
C=CCc1ccc(O)c(OC)c1 = -1
Cc1ccc(C(C)C)cc1O = 2
COc1cc(/C=C/C(=O)/C=C(O)/C=C/c2ccc(O)c(OC)c2)ccc1O = 89

Query: Answer with the recorded inhibition at 50 µM of C=CCc1ccc(OC)c(OC)c1 only.
Response: 5

Query: Please supply the value of reported inhibition at 50 µM for the item Cc1ccc(C(C)C)c(O)c1
Response: -21

---

- Experimental System: α-synuclein seeded by E. coli CsgA (Homo sapiens, UniProt P37840)
- Construct: made in house; host or cells: E. coli NEB 3016 slyD::kan (CsgA, pET11d); E. coli (α-synuclein)
- Experiment: In vitro Thioflavin T assay of CsgA-seeded α-synuclein aggregation
- Type: biochemical
- Condition: compounds at 50 μM; 2 μM CsgA, 50 μM α-synuclein; ThT fluorescence at 40 hours; read-out: Inhibition of Aggregation CsgA-seeded αSyn (compound activity range)
Test Readout: inhibition at 50 µM

Check out these entries, answers already filled in.
C=CCc1ccc(OC)c(OC)c1 [4-allyl-1,2-dimethoxy-benzene, 4-allyl-1,2-dimethoxybenzene] = 30 to 60%
O=C(CCc1ccc(O)cc1)c1c(O)cc(O)cc1O [phloretin] = 10 to 30%
CCCCCCCCCCCCOC(=O)c1cc(O)c(O)c(O)c1 [lauryl gallate, dodecyl 3,4,5-trihydroxybenzoate] = 10 to 30%
COc1ccccc1O [guaiacol, 2-methoxyphenol] = 30 to 60%
Cc1ccc(C(C)C)c(O)c1 [thymol, 5-methyl-2-(propan-2-yl)phenol] = -10 to 10%

# next molecule below
Query: Find inhibition at 50 µM for C/C=C/c1ccc(O)c(OC)c1 [isoeugenol, 2-methoxy-4-(prop-1-en-1-yl)phenol] on α-synuclein seeded by E. coli CsgA (Homo sapiens, UniProt P37840) and write it down.
Response: 30 to 60%
